Numbers sourced from patent US20230404887A1.

We begin with a simple list: items and their reported EFFECTIVE CONCENTRATION.
protocol_details: Expert perfumer evaluation of malodor reduction, dynamic olfactometer, against 3H3MHA
Set-up: species or system human
condition_label: MO 3H3MHA held fixed at mid-intensity (0.5), headspace concentration providing an effective level

{"molecule": "C/C=C/C(=O)C1C(C)=CCCC1(C)C (racemic)", "readout_units": "micrograms/L AIR", "EFFECTIVE CONCENTRATION": "1.08E−02"}
{"molecule": "C/C=C/c1ccc(OCC)c(O)c1 [(E)-2-ETHOXY-5-(1-PROPENYL)PHENOL]", "readout_units": "micrograms/L AIR", "EFFECTIVE CONCENTRATION": "4.50E−03"}
{"molecule": "CCCCC[C@H]1C(=O)CC[C@@H]1CC(=O)OC (racemic)", "readout_units": "micrograms/L AIR", "EFFECTIVE CONCENTRATION": "5.73E−01"}
{"molecule": "CCOC(=O)[C@@H]1[C@@H](C(C)C)[C@@H]2C=C[C@H]1C2 (racemic)", "readout_units": "micrograms/L AIR", "EFFECTIVE CONCENTRATION": "1.03E+00"}
{"molecule": "CC/C=C\\CC/C=C/C=O", "readout_units": "micrograms/L AIR", "EFFECTIVE CONCENTRATION": "1.13E−03"}

* * *

protocol_details: Expert perfumer evaluation of malodor reduction, dynamic olfactometer, against 3H3MHA
Parameters: species or system human
condition_label: MO 3H3MHA held fixed at mid-intensity (0.5), headspace concentration providing an effective level
We begin with a simple list: items and their reported EFFECTIVE CONCENTRATION.
measured_property: EFFECTIVE CONCENTRATION (micrograms/L AIR)

{"compound": "CC(=O)c1ccc2ccccc2c1", "obs_value": "1.37E−02"}
{"compound": "Cc1ccc2c(c1)CC(C)(CO)C2 (racemic)", "obs_value": "3.13E−02"}
{"compound": "C[C@@H]1C/C=C\\CCCCCCCCCC(=O)C1", "obs_value": "5.50E−01"}
{"compound": "CC(C)=CCCC(C)CC=O (racemic)", "obs_value": "1.30E−01"}
{"compound": "c1ccc(CCCc2ccccn2)cc1 [2-(3-PHENYLPROPYL)PYRIDINE]", "obs_value": "1.43E−04"}
{"compound": "C=C1CCCC(C)(C)C1C(=O)OC (racemic)", "obs_value": "8.00E−01"}
